The measurements presented in this section are drawn from PubChem BioAssay (NCI).

test system: MDA-MB-468 breast; test: NCI-60 one-dose screen, 48 h (100 = growth as untreated, 0 = no growth, -100 = all killed); conditions: 10 µM unless noted
Compounds without any hit were thinned out: in the full panel of roughly 83,000, 20% have a hit.
Just a reminder that ties go to Criterion not met: only growth strictly below 80% counts as Criterion met.

Problem: Record O=C(OC(OC(=O)c1cc(Cl)cc(Cl)c1)c1cccc2ccccc12)c1ccccc1 (stereo not given) : is its growth strictly below 80%?
Result: Criterion not met

Problem: Input CC1=NC2=Nn3c(c4cnn(-c5ccccc5)c4n/c3=N\N)NN2C(c2ccccc2)=C1 ; condition: growth strictly below 80%. Does it hold?
Result: Criterion met

Problem: Lab log: compare recorded growth with 80%; is it strictly lower for CC(=O)OC[C@]12CCC(C)(C)C[C@H]1[C@@]1(O)[C@H](O)C[C@@H]3[C@@]4(C)CCCNC(C)(C)[C@@H]4CC[C@@]3(C)[C@]1(C)CC2 ?
Result: Criterion not met

Problem: Given the entry C=CCn1c(C)nc2cc(Nc3nc(N4CCOCC4)nc4nc[nH]c34)ccc21 , would its reported growth be below 80%?
Result: Criterion not met

Problem: Say whether its growth is strictly beneath 80%. Entry: CN(C)CC(=O)Nc1ccc(Cn2nnc3c2C(=O)c2nnn(Cc4ccc(NC(=O)CN(C)C)cc4)c2C3=O)cc1
Result: Criterion met

Problem: Criterion: growth strictly below 80%. Is it met by O=C(O)c1cccnc1Br ?
Result: Criterion not met

Problem: Consider the molecule CC(Nc1c(C#N)cnc2ccc(-c3cncc(-c4n[nH]c(=O)o4)c3)cc12)c1ccccc1 (stereo not given) . Is its growth strictly less than 80%?
Result: Criterion met

Problem: Answer whether the molecule ON=C(C1CCCCC1)C1CCCCC1 has growth strictly less than 80%
Result: Criterion not met

Problem: Consider COc1ccc2nc3cc(Cl)ccc3c(NCCN)c2c1 . Does its growth lie strictly below 80%?
Result: Criterion met

====

system: SK-MEL-2 melanoma; experiment: NCI-60 one-dose screen, 48 h; conditions: 10 µM
The panel holds about 83,000 compounds, 20% with a hit somewhere; the sample as a whole holds those more often. Activity calls are given as the source filed them. Rule for the calls: active = growth percent below 10; inactive = the rest.
Could you please pick one outcome from this set? true (active), false (inactive)

Problem: For COc1ccc(Cc2nn(CC(=O)N/N=C/c3ccc(Br)cc3)c(=O)c3c(C)noc23)cc1 , what call appears in the results of this test?
Result: true

Problem: Dear all, I need the recorded test outcome for Cn1cc(-c2nc(N)nnc2-c2c[nH]c3ccccc23)c2cc(Br)cnc21 , thank you.
Result: false

Problem: Short answer needed: outcome of this test for COc1ccccc1-n1cc(C#N)c(N)c1C(=O)c1ccc(Cl)cc1Cl ?
Result: true

Problem: Called result for Cn1cc(-c2nnc(N)nc2-c2c[nH]c3ccc(F)cc23)c2cc(Br)cnc21
Result: false

Problem: # lookup: test call for C#C[C@]1(O)CC[C@H]2[C@@H]3CC=C4c5sc(Nc6cc(C)cc(C)n6)nc5CC[C@]4(C)[C@H]3CC[C@@]21C
Result: true

Problem: Recorded test call requested for COc1ccc(OC)c(-n2cc(C#N)c(N)c2C(=O)c2ccc(Cl)cc2Cl)c1
Result: true

Problem: Which outcome did this test record for the molecule COc1ccc2[nH]cc(-c3nc(N)nnc3-c3cn(C)c4ncc(Br)cc34)c2c1 ?
Result: false

Problem: I would be grateful if you could indicate the recorded call for O=C(c1ccc(Cl)cc1)C(c1c[nH]c2ccccc12)c1c[nH]c2ccccc12 .
Result: true

Problem: What did the test return for COc1cc2oc(-c3cccc(C(=O)Nc4ccc(Cl)cc4)c3)cc(=O)c2c(OCCN)c1OC ?
Result: true

====

Tested on: MDA-MB-468 breast
Test: NCI-60 one-dose screen, 48 h (100 = growth as untreated, 0 = no growth, -100 = all killed)
Details: 10 µM unless noted
Method: Growth inhibition of the MDA-MB-468 human Breast tumor cell line is measured as a screen for anti-cancer activity. Cells are grown in 96 well plates and exposed to the test compound for 48 hours. Compounds are tested at a single concentration, which is 10^-5 M for most compounds. The reported endpoint is percent growth (GI% or GIPRCNT), where numbers from 0 - 100% represent growth inhibition, and numbers from -100% - 0 represent cell death. […]
This is part of a sample that, as a whole, favours compounds with a hit. Of some 83,000 tested, about 20% had one in any assay.
Experimental Endpoint: growth (%)
Response body: numeric value in %, unit text excluded.

Problem: Record request: growth value, item O=C(c1ccccc1)N(CCc1ccc(Cl)cc1)C(=S)N(C(=O)c1ccccc1)c1ccccc1
Result: 36

Problem: Quick one: growth for CCOC(=O)c1c(NC(=O)c2cccc(C(F)(F)F)c2)sc2c1CCC(=O)C2 ?
Result: -9.5

Problem: What does the record list as growth for O=C(Nc1ccc(Cl)cc1F)c1cc(F)ccc1O ?
Result: 3.61

Problem: Can you share its growth? I mean this molecule: COc1ccc(N2CCN(c3nc(-c4ccccc4)c(C#N)c(=O)[nH]3)CC2)cc1
Result: 97.9

Problem: Look up growth: O=C1C(Cl)=C(Nc2ccc(S(=O)(=O)N3CCOCC3)cc2)C(=O)c2ccccc21
Result: 74.1

Problem: Fill in the blank: the reported growth of Nc1nc(N)c(N=Nc2ccc(C(=O)O)cc2)c(N)n1 is ____.
Result: 114

Problem: Would you mind telling me what growth value was observed for Cc1ncc(C(=O)Nc2ccc(CN3CCN(C)CC3)c(C(F)(F)F)c2)cc1C#Cc1c(N)ncc2ccc(C#N)cc12 ?
Result: 98.5

Problem: # lookup: growth of CCOC(=O)N1CCc2c(sc3c2C(=O)N[C@H](c2ccc(OC)cc2)N3)C1
Result: 101

Problem: Consider the molecule COc1ccc(-c2nnc(SCC(=O)c3ccccc3)o2)cc1 and give its measured growth.
Result: 91.5

Problem: # input molecule: Cc1cc(C)c(-c2c(C)cc(C)cc2CBr)c(CBr)c1 ; wanted: its growth
Result: 45.1

====

Would you mind telling me the reported growth of each entry?
system: MDA-MB-468 breast; assay: NCI-60 one-dose screen, 48 h (100 = growth as untreated, 0 = no growth, -100 = all killed); details: 10 µM unless noted
The panel holds about 83,000 compounds, 20% with a hit somewhere; the sample as a whole holds those more often. Activity calls are given as the source filed them. How the source made its calls: active means growth percent below 10; inactive means the rest.

Problem: Which growth value belongs to CC1=C2[C@@H](CC1)[C@]1(C)O[C@@](C(C)C)(C[C@H]1OC(=O)[C@H](C)O)[C@H]2OC(=O)/C=C/c1ccccc1 ?
Result: 86.9% (inactive)

Problem: Given the entry Cc1ccc(Cl)cc1NC(=O)N(C)CCO , report its measured growth.
Result: 132% (inactive)

Problem: What does the record list as growth for CC(/C=N/N1C(=O)c2ccccc2C1=O)c1ccccc1 (stereo not given) ?
Result: 95.9% (inactive)

Problem: For the compound CCOC(=O)c1cc(C(=O)c2cc(OC)c(OC)c(OC)c2)n2ccccc12 , what growth is on record?
Result: -7.14% (active)

Problem: Entry COC1=CC(c2ccc[nH]2)=N/C1=C\c1[nH]c(C)c(C(=O)CCC(=O)Oc2ccc3c(c2)CCC2C3CC[C@]3(C)C(=O)CC[C@@H]23)c1C (stereo not given in full) has what growth?
Result: 76.3% (inactive)

Problem: What value of growth has been recorded for this entry: O=C1Nc2ccccc2/C1=C/c1ccc(CO)n1-c1ccc(Cl)cc1
Result: 27.8% (inactive)

Problem: growth for COc1ccc(CCN2C(=O)CCSC2=S)cc1OC ?
Result: 19.8% (inactive)

Problem: GET /values?readout=growth&item= Cc1cc(C)c2nc3nc(C)cc(C)c3c(N)c2c1
Result: 48.4% (inactive)

Problem: Consider the compound shown here: COC(=O)c1nc(-c2ccccc2)oc1S(=O)(=O)NCC(c1ccc(Cl)cc1)N1CCOCC1 (stereo not given) What is its recorded growth?
Result: 29.9% (inactive)

Problem: Using the record for Nc1ccccc1NS(=O)(=O)c1ccc(Cl)cc1 , report its growth.
Result: 99.1% (inactive)

====

tested on: MDA-MB-468 breast; experiment: NCI-60 one-dose screen, 48 h; conditions: 10 µM unless noted
The panel holds about 83,000 compounds, 20% with a hit somewhere; the sample as a whole holds those more often. Activity calls are given as the source filed them. The calls were made as follows: active = growth percent below 10; inactive = the rest.
Reply using exactly one outcome from Yes = active, No = inactive

Problem: Dear colleague, could you share the recorded outcome for COC(=O)C(Cc1ccccc1)NC(=O)NC(=O)NC(=O)CI (stereo not given) when you have a moment?
Result: No

Problem: Could you kindly confirm the outcome this assay logged for C/C1=C\CC[C@@]2(C)O[C@H]2[C@H]2OC(=O)C(CN3CCN(CC4C(=O)O[C@H]5[C@H]4CC/C(C)=C/CC[C@@]4(C)O[C@@H]54)CC3)[C@@H]2CC1 (stereo not given in full) ?
Result: No

Problem: Dear all, I need the recorded test outcome for O=C1/C=C/[C@@H](O)[C@@H]2C[C@@H](O)C[C@H]2/C=C/CCC[C@H](C(F)(F)F)O1 , thank you.
Result: Yes

Problem: Any idea what this test logged for CC(=O)Nc1cc(C)ccc1C ?
Result: No

Problem: Look up the recorded call for CCN(CC)CCCC(C)Nc1cc(O)cc2cccnc12 (stereo not given) in this test.
Result: No

Problem: Called result for CCCCCCCCCCCC[n+]1c(C)cc(N)c2ccccc21
Result: Yes

Problem: I'd appreciate the recorded outcome for N#Cc1c(Oc2ccc([N+](=O)[O-])cc2)nc2sc3cc(Cl)ccc3n2c1=N from this test.
Result: Yes

Problem: Short answer needed: outcome of this test for C=COCCCCCCCCCCCCCCCCCC ?
Result: No

Problem: Just curious, what result did CNc1nc(NC)c2cn[nH]c2n1 get here?
Result: No

Problem: What classification did CC/C(=C(/c1ccc(OCCN(C)C)cc1)c1ccc(OC(=O)CCCCCCCCC(=O)c2c(C)[nH]c(/C=C3\N=C(c4ccc[nH]4)C=C3OC)c2C)cc1)c1ccccc1 end up with in this test?
Result: No
